Just for reference, ChEMBL document CHEMBL3526110 is where these values come from.

Assay details: Half life in Wistar Hanover rat blood at 10 mg/kg, iv administered as single dose
Format: ADME, organism-based
Parameters: dose 10 mg/kg, route intravenous
Reported conditions: whole blood
Property measured: half-life

Reported half-life for O=C(CBr)N1CC([N+](=O)[O-])([N+](=O)[O-])C1 : what is it? > 168 h

---

Test system: Blood
Assay details: Retention time in human whole blood in presence of 0.1% formic acid in acetonitrile at 20 uM by LC-MS/MS method
Format: ADME, tissue-based
Items are presented alongside their recorded Retention_time.
Write the value in min as a bare number.

N[C@@H](CSCC(=O)N1CC([N+](=O)[O-])([N+](=O)[O-])C1)C(=O)NCC(=O)O    6.2
N[C@@H](CSCC(=O)N1CC([N+](=O)[O-])C1)C(=O)O    4.3
O=C(CBr)N1CC([N+](=O)[O-])([N+](=O)[O-])C1 [NIBROZETONE]    15.1

What value of Retention_time on Blood does N[C@@H](CSCC(=O)N1CC([N+](=O)[O-])([N+](=O)[O-])C1)C(=O)O have? 7.6

---

Assay details: Ratio of drug level in rat blood to rat plasma at 1 uM after 30 mins
Assay type: ADME, cell-free
Reported conditions: whole blood
Property measured: blood plasma ratio at 0.5 h, 1 µM
Please give the numeric answer without any surrounding text.

Name the reported blood plasma ratio at 0.5 h, 1 µM value associated with the molecule O=C(CBr)N1CC([N+](=O)[O-])([N+](=O)[O-])C1 2.1

---

Measured Retention_time accompanies every entry in the list below.
Test system: Blood
Assay details: Retention time in rat whole blood in presence of 0.1% formic acid in acetonitrile at 20 uM by LC-MS/MS method
Format: ADME, tissue-based
Give just the number in min; leave the unit off.

Known Retention_time results, listed for orientation:
N[C@@H](CSCC(=O)N1CC([N+](=O)[O-])C1)C(=O)O    4.3
N[C@@H](CSCC(=O)N1CC([N+](=O)[O-])([N+](=O)[O-])C1)C(=O)NCC(=O)O    6.2
N[C@@H](CSCC(=O)N1CC([N+](=O)[O-])([N+](=O)[O-])C1)C(=O)O    7.6

Please look at the following compound next.
Suppose we examine the compound O=C(CBr)N1CC([N+](=O)[O-])([N+](=O)[O-])C1 ; what Retention_time value has been reported? 15.1

---

Each entry below carries its recorded Retention_time.
Tested on: Blood
Assay details: Retention time in human whole blood in presence of 0.1% formic acid in water at 20 uM by LC-MS/MS method
Format: ADME, tissue-based
Express the reported value numerically, then name its unit.

O=C(CBr)N1CC([N+](=O)[O-])([N+](=O)[O-])C1 [NIBROZETONE]    12.8 min
N[C@@H](CSCC(=O)N1CC([N+](=O)[O-])([N+](=O)[O-])C1)C(=O)NCC(=O)O    8 min
N[C@@H](CSCC(=O)N1CC([N+](=O)[O-])([N+](=O)[O-])C1)C(=O)O    7.8 min

For the compound N[C@@H](CSCC(=O)N1CC([N+](=O)[O-])C1)C(=O)O , what Retention_time is on record? 4.7 min

---

Assay details: Ratio of drug level in rat blood to rat plasma at 20 uM after 30 mins
Assay type: ADME, cell-free
Reported conditions: whole blood
Property measured: blood plasma ratio at 0.5 h, 20 µM

// lookup blood plasma ratio at 0.5 h, 20 µM for O=C(CBr)N1CC([N+](=O)[O-])([N+](=O)[O-])C1 4

---

Assay details: Binding affinity to monkey hemoglobin assessed as protein bound compound level at 1 uM
Assay type: ADME, Macaca mulatta
Reported conditions: rhesus monkey, read-out: PB (converted)
Property measured: fraction unbound at 1 µM

Can you share its fraction unbound at 1 µM? I mean this molecule: O=C(CBr)N1CC([N+](=O)[O-])([N+](=O)[O-])C1 0.902

---

Assay details: Ratio of drug level in dog blood to dog plasma at 1 uM after 30 mins
Format: ADME, Canis lupus familiaris
Reported conditions: whole blood
Property measured: blood plasma ratio at 0.5 h, 1 µM
Answer using only a numeral; do not append any unit.

Field request: blood plasma ratio at 0.5 h, 1 µM | item: O=C(CBr)N1CC([N+](=O)[O-])([N+](=O)[O-])C1 0.83

---

Assay details: Ratio of drug level in monkey blood to monkey plasma at 1 uM after 30 mins
Format: ADME, Macaca mulatta
Reported conditions: rhesus monkey, whole blood
Property measured: blood plasma ratio at 0.5 h, 1 µM

Value lookup for blood plasma ratio at 0.5 h, 1 µM; key = O=C(CBr)N1CC([N+](=O)[O-])([N+](=O)[O-])C1 [NIBROZETONE] 0.82

---

Assay details: Ratio of drug level in dog blood to dog plasma at 20 uM after 30 mins
Format: ADME, Canis lupus familiaris
Reported conditions: whole blood
Property measured: blood plasma ratio at 0.5 h, 20 µM
// keep it numeric: no unit symbol after the value

Any idea what blood plasma ratio at 0.5 h, 20 µM was measured for O=C(CBr)N1CC([N+](=O)[O-])([N+](=O)[O-])C1 [NIBROZETONE] ? 1.2

---

Assay details: Drug excretion in Wistar Hanover rat urine at 10 mg/kg, iv administered as single dose after 168 hrs
Format: ADME, organism-based
Parameters: dose 10 mg/kg, route intravenous
Reported conditions: read-out: Drug excretion
Property measured: dose excreted at 168 h (%)
# number only, unit % dropped from output

For the compound O=C(CBr)N1CC([N+](=O)[O-])([N+](=O)[O-])C1 [NIBROZETONE] , what dose excreted at 168 h is on record? 36.3

---

Test system: Blood
Assay details: Retention time in rat whole blood in presence of 0.1% formic acid in water at 20 uM by LC-MS/MS method
Type: ADME, tissue-based
Property measured: Retention_time (min)
Hi! Could you send only the number? It should be in min, unit omitted.

Take a look at these entries with their results.
N[C@@H](CSCC(=O)N1CC([N+](=O)[O-])C1)C(=O)O    4.7
N[C@@H](CSCC(=O)N1CC([N+](=O)[O-])([N+](=O)[O-])C1)C(=O)O    7.8
O=C(CBr)N1CC([N+](=O)[O-])([N+](=O)[O-])C1 [NIBROZETONE]    12.8

Attention now shifts to the item below.
Quick one: Retention_time of N[C@@H](CSCC(=O)N1CC([N+](=O)[O-])([N+](=O)[O-])C1)C(=O)NCC(=O)O ? 8

---

Assay details: Drug excretion in Wistar Hanover rat feces at 10 mg/kg, iv administered as single dose measured on day 2
Type: ADME, organism-based
Design: dose 10 mg/kg, route intravenous
Reported conditions: faeces, read-out: Drug excretion
Property measured: dose excreted

Give its dose excreted value. Item: O=C(CBr)N1CC([N+](=O)[O-])([N+](=O)[O-])C1 0.3%

---

Assay details: Ratio of drug level in human blood to human plasma at 1 uM after 30 mins
Assay type: ADME
Reported conditions: whole blood
Property measured: blood plasma ratio at 0.5 h, 1 µM
Please reply with the number alone, leaving off any unit.

Suppose we examine the molecule O=C(CBr)N1CC([N+](=O)[O-])([N+](=O)[O-])C1 ; what blood plasma ratio at 0.5 h, 1 µM value has been reported? 1

---

Assay details: Ratio of drug level in monkey blood to monkey plasma at 20 uM after 30 mins
Format: ADME, Macaca mulatta
Reported conditions: rhesus monkey, whole blood
Property measured: blood plasma ratio at 0.5 h, 20 µM
Response field accepts a number only; no unit should be typed.

For the compound shown here, O=C(CBr)N1CC([N+](=O)[O-])([N+](=O)[O-])C1 , give the reported blood plasma ratio at 0.5 h, 20 µM. 1.5

---

Assay details: Drug excretion in Wistar Hanover rat feces at 10 mg/kg, iv administered as single dose measured on day 1
Type: ADME, organism-based
Design: dose 10 mg/kg, route intravenous
Reported conditions: faeces, read-out: Drug excretion
Property measured: dose excreted
In your response, put the unit directly after the numeric value.

Consider the compound O=C(CBr)N1CC([N+](=O)[O-])([N+](=O)[O-])C1 and give its measured dose excreted. 1.5%

---

Assay details: Binding affinity to human hemoglobin assessed as protein bound compound level at 20 uM
Format: ADME
Reported conditions: read-out: PB (converted)
Property measured: fraction unbound at 20 µM

Return reported fraction unbound at 20 µM; argument: O=C(CBr)N1CC([N+](=O)[O-])([N+](=O)[O-])C1 [NIBROZETONE] 0.78

---

Assay details: Binding affinity to rat hemoglobin assessed as protein bound compound level at 1 uM
Assay type: ADME
Reported conditions: read-out: PB (converted)
Property measured: fraction unbound at 1 µM
Reply with the value as a number alone.

Requested read-out: fraction unbound at 1 µM. Entry: O=C(CBr)N1CC([N+](=O)[O-])([N+](=O)[O-])C1 0.31

---

Assay details: Volume of distribution in Wistar Hanover rat blood at 10 mg/kg, iv administered as single dose
Format: ADME, organism-based
Design: dose 10 mg/kg, route intravenous
Reported conditions: whole blood
Property measured: Vd (L/kg)
The reply should contain only the number, in L/kg.

GET /values?readout=Vd&item= O=C(CBr)N1CC([N+](=O)[O-])([N+](=O)[O-])C1 [NIBROZETONE] 0.084
